Target: LdPEX5-PTS1 interaction (Leishmania donovani, UniProt A0A3S7X906)
Construct: encoding LdPEX5CT, corresponding to 322 amino acids (AF198051.1: 303-625), was synthesized; 6xHis (pET15b) (N); made in house; host or cells: Escherichia coli BL21 (DE3)
Sequence (A0A3S7X906 entry or part of it): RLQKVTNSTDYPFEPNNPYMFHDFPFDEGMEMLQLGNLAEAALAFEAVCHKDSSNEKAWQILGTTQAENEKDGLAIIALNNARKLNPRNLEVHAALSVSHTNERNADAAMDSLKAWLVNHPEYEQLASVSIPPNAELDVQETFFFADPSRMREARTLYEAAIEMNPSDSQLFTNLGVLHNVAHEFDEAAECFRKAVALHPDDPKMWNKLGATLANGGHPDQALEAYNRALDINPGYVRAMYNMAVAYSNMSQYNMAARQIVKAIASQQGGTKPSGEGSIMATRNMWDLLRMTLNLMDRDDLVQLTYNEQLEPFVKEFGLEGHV
Experiment: biochemical
Assay type: binding
Conditions: IC50 of unlabeled PTS1 peptides, 1 µM LdPEX5, 5 nM FITC-SGAGSKL, peptide from 60 µM half dilution 10 points
Protocol: HTS using FP was conducted to identify inhibitors of the LdPEX5-PTS1 interaction. The screening utilized an in-house compound library comprising 51,406 compounds with diverse structural profiles. […] The Z’ factor was calculated using the formula Z′ = 1 − 3(σp + σn)/(μp − μn), where σp and σn are the standard deviations of the positive and negative controls, respectively, and μp and μn represent their respective mean values. […]
No end group written: not given here.
Let's look at some substances and their measured IC50.

Substance: TRYPAKL [TRYPAKL, reference compound]
Assayed system: LdPEX5-PTS1 interaction (Leishmania donovani, UniProt A0A3S7X906)
Censoring sign: =
IC50, µM: 3.61
--
Substance: ARLASKV [ARLASKV, reference compound]
Assayed system: LdPEX5-PTS1 interaction (Leishmania donovani, UniProt A0A3S7X906)
Censoring sign: >
IC50, µM: 60
--
Substance: SGAGSKL [SGAGSKL, reference compound]
Assayed system: LdPEX5-PTS1 interaction (Leishmania donovani, UniProt A0A3S7X906)
Censoring sign: =
IC50, µM: 10.7

* * *

Target: LdPEX5-PTS1 interaction (Leishmania donovani)
Construct: encoding LdPEX5CT, corresponding to 322 amino acids (AF198051.1: 303-625), was synthesized; 6xHis (pET15b) (N); made in house; host or cells: Escherichia coli BL21 (DE3)
Assay: biochemical
Assay type: binding
Conditions: 1 µM LdPEX5, 5 nM FITC-SGAGSKL, 1 h; three independent replicates; read-out: LdPEX5-PTS1 Inhibition IC50 ± SD
pIC50: −log10 of the molar value.
Property measured: pIC50

Molecule: CN(C)c1ccc(Nc2cnc3ccccc3n2)cn1 [P02]
Measured value: 4.63
--
Molecule: Cn1ncc(-c2nc3cc(S(N)(=O)=O)ccc3[nH]2)n1 [P04]
Measured value: 4.84
--
Molecule: COc1ccc(NC(=O)C2(S(=O)(=O)c3ccc(Cl)cc3)CCCC2)cn1 [P08]
Measured value: 5.41
--
Molecule: CNc1ccc(Nc2ncnc3sccc23)cn1 [P20]
Measured value: 4.78
--
Molecule: Cc1cc(C(=O)Nc2cc(C(N)=O)ccc2N2CCCCC2)c2c(C)noc2n1 [P17]
Measured value: 4.60
--
Molecule: CCOc1ccc(NC2CCN(Cc3cscn3)CC2)cn1 [P28]
Measured value: 4.80
--
Molecule: CCc1ncc2c(n1)CN(Cc1cc(=O)n3cccc(C)c3n1)CC2 [P21]
Measured value: 4.61
